- System: MIA pancreas
- experimental_protocol: In vitro cytotoxicity MTT assay, MIA pancreas
- Format: cell-based
- settings: 72 h drug exposure, n = 3
value_kind: GI50 (nM)
Only the number, expressed in nM, is required.

Query block: What GI50 value was documented for this molecule, `Cc1c(C)c2cccnc2c2ncccc12.N[C@H]1CCCC[C@@H]1N.[Cl-].[Cl-].[Pt+2]` ?
Result block: 22

Query block: What GI50 value was documented for this molecule, COc1ccc2c(c1)c(CC(=O)[O][Pt-2]13([OH])([NH2+]C4CCCCC4[NH2+]1)[n+]1cccc4ccc5ccc[n+]3c5c41)c(C)n2C(=O)c1ccc(Cl)cc1.O=[N+]([O-])[O-].O=[N+]([O-])[O-] (centres unmarked) ?
Result block: 330

Query block: What GI50 value was documented for this molecule, `CC(=O)Oc1ccccc1C(=O)[O-].Cc1c(C)c2cccnc2c2ncccc12.N[C@H]1CCCC[C@@H]1N.O=[N+]([O-])[O-].O=[N+]([O-])[O-].[OH-].[Pt+4]` ?
Result block: 8

Query block: What GI50 value was documented for this molecule, COc1ccc2c(c1)c(CC(=O)[O][Pt-2]13([OH])([NH2+]C4CCCCC4[NH2+]1)[n+]1cccc4c(C)c(C)c5ccc[n+]3c5c41)c(C)n2C(=O)c1ccc(Cl)cc1.O=[N+]([O-])[O-].O=[N+]([O-])[O-] (centres unmarked) ?
Result block: 21

Query block: What GI50 value was documented for this molecule, `Cc1c(C)c2cccnc2c2ncccc12.N[C@H]1CCCC[C@@H]1N.O=[N+]([O-])[O-].O=[N+]([O-])[O-].[OH-].[OH-].[Pt+4]` ?
Result block: 43

Query block: What GI50 value was documented for this molecule, `N[C@H]1CCCC[C@@H]1N.[Cl-].[Cl-].[Pt+2].c1cnc2c(c1)ccc1cccnc12` ?
Result block: 240

* * *

Field: log10 GI50. Provide a value for each of the molecules that follow.
- Tested on: cisplatin-resistant ADDP ovarian (subclone of A2780 cell line)
- experimental_protocol: In vitro cytotoxicity MTT assay, cisplatin-resistant ADDP ovarian
- Assay type: cell-based
- settings: ADDP (cisplatin-resistant); MTT, 72 h drug exposure, n = 3
All values: log10 GI50 [nM].

Query block: What log10 GI50 value was documented for this molecule, N[C@H]1CCCC[C@@H]1N.[Cl-].[Cl-].[Pt+2].c1cnc2c(c1)ccc1cccnc12 [PHENSS(II)] ?
Result block: 2.36

Query block: What log10 GI50 value was documented for this molecule, COc1ccc2c(c1)c(CC(=O)[O][Pt-2]13([OH])([NH2+]C4CCCCC4[NH2+]1)[n+]1cccc4ccc5ccc[n+]3c5c41)c(C)n2C(=O)c1ccc(Cl)cc1.O=[N+]([O-])[O-].O=[N+]([O-])[O-] (stereo not drawn) [compound 1] ?
Result block: 2.54

Query block: What log10 GI50 value was documented for this molecule, CC(=O)Oc1ccccc1C(=O)[O-].Cc1c(C)c2cccnc2c2ncccc12.N[C@H]1CCCC[C@@H]1N.O=[N+]([O-])[O-].O=[N+]([O-])[O-].[OH-].[Pt+4] [compound 4] ?
Result block: 1.08

Query block: What log10 GI50 value was documented for this molecule, Cc1c(C)c2cccnc2c2ncccc12.N[C@H]1CCCC[C@@H]1N.[Cl-].[Cl-].[Pt+2] [56MESS(II)] ?
Result block: 1.43

Query block: What log10 GI50 value was documented for this molecule, COc1ccc2c(c1)c(CC(=O)[O][Pt-2]13([OH])([NH2+]C4CCCCC4[NH2+]1)[n+]1cccc4c(C)c(C)c5ccc[n+]3c5c41)c(C)n2C(=O)c1ccc(Cl)cc1.O=[N+]([O-])[O-].O=[N+]([O-])[O-] (stereo not drawn) [compound 2] ?
Result block: 1.38

Query block: What log10 GI50 value was documented for this molecule, Cc1c(C)c2cccnc2c2ncccc12.N[C@H]1CCCC[C@@H]1N.O=[N+]([O-])[O-].O=[N+]([O-])[O-].[OH-].[OH-].[Pt+4] [56MESS(IV)] ?
Result block: 2.23
